Where these numbers come from: ChEMBL document CHEMBL3430320

- studySystem: Voltage-gated inwardly rectifying potassium channel KCNH2 (Homo sapiens, UniProt Q12809)
- Sequence (Q12809 whole entry): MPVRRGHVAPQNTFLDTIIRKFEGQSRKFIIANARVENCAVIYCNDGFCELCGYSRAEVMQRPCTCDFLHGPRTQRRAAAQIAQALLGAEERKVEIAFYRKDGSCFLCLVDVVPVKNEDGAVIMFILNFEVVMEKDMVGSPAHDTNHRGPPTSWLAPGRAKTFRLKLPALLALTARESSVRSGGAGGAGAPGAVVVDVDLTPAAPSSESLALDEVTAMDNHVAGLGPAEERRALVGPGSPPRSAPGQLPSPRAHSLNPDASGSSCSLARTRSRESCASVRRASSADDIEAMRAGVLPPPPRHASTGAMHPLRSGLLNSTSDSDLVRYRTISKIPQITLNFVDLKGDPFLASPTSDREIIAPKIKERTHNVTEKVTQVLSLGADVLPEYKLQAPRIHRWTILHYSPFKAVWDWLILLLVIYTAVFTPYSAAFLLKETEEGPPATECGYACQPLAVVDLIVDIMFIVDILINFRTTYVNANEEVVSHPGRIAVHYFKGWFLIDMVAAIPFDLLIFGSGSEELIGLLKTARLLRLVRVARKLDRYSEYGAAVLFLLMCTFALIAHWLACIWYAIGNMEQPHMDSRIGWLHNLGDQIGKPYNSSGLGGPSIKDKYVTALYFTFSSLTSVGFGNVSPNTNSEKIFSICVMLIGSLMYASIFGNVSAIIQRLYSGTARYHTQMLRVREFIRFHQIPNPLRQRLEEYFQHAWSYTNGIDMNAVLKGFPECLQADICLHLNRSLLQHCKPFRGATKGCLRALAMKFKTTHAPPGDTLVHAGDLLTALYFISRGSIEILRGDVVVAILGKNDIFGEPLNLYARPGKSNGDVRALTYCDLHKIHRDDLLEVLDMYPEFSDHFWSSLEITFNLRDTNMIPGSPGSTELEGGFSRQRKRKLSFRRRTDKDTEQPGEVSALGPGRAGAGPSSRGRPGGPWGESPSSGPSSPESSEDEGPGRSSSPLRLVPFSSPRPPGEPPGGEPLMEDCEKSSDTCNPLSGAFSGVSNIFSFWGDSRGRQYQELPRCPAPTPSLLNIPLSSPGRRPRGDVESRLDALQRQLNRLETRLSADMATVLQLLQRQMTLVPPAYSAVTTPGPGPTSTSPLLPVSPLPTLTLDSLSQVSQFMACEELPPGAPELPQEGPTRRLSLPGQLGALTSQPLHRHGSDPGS
- assay: Inhibition of rapid delayed inward rectifying potassium current (IKr) in Chinese hamster ovary (CHO) K1 cells stably expressing hERG measured using IonWorks Quattro automated patch clamp platform
- Assay type: functional, cell-based, Cricetulus griseus
Record form. Attribute: pIC50. Fill in for each entry.
Hey, just send me the number, nothing else.

Exercise: Give the reported pIC50 for CN(C)CC(c1ccc(O)cc1)C1(O)CCCCC1 (stereo not given) [DESVENLAFAXINE] (system: Voltage-gated inwardly rectifying potassium channel KCNH2 (Homo sapiens, UniProt Q12809)).
Solution: 1.7

Exercise: Do the same for COC(c1ccccc1)(c1ccccc1)[C@H](Oc1nc(C)cc(C)n1)C(=O)O [AMBRISENTAN] please
Solution: 2.1

Exercise: Now consider Cc1cn([C@@H]2C[C@@H](O)[C@H](CO)O2)c(=O)[nH]c1=O [TELBIVUDINE] and answer again.
Solution: 2.3

----------
- studySystem: Voltage-gated inwardly rectifying potassium channel KCNH2 (Homo sapiens, UniProt Q12809)
- assay: Inhibition of rapid delayed inward rectifying potassium current (IKr) measured using manual patch clamp assay
- Type: functional
Kindly supply the reported IC50 values for the records listed here.
Your answer should be a plain number; it is taken to be in nM.

Exercise: For OC(CNCC(O)C1CCc2cc(F)ccc2O1)C1CCc2cc(F)ccc2O1 (configuration not stated) [NEBIVOLOL] , what is its reported IC50?
Solution: 316

Exercise: Try this compound next: O=C1c2cccc3c2[C@H](CCC3)CN1[C@@H]1CN2CCC1CC2 [PALONOSETRON]
Solution: 2000
